Target: canine IL-4RA (construct not given) (canine)
Assay: SPR, IL-4RA immobilised, periplasmic Fab
Consider the following binders and their measured koff readings.
Please state the figure in s⁻¹; there is no need to write the unit.

Recorded koff, per entry:
FJ2246MP06G08 (Fab, V domains shown) VH: EVQLVESGGDLVKPGGSLRLSCVASGFTFRDYAMTWVRQAPGKGLQWVSLINGNGSKTYYADAVKGRFTISRDNAKNTLYLQMNSLRAEDTAVYYCAVDRLTKTIRPQYYGLWVWGQGTLVTVSS VL: DIVMTQTPLSLSVSPGETASISCRSSQSLLYSIGYNYLDWYLQKPGQSPQGLIYLGSKRASGVPDRFSGSGSGTDFTLRISRVEANDTGVYYCMQGLQSPLTFGQGTKLEIKR :: 9.01e-05
FJ2246MP06D12 (Fab, V domains shown) VH: EVQLVESGGDLVKPGGSLRLSCVASGFTFRDYAMTWVRQAPGKGLQWVSLINGNSGKTYYADAVKGRFTISRDNAKNTLYLQMNSLRAEDTAVYYCAVDRLTKTIRPQYYGLWVWGQGTLVTVSS VL: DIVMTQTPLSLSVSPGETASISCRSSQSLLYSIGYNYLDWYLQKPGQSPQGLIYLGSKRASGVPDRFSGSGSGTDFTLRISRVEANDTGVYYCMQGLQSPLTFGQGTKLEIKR :: 0.000102

// moving on: another record for koff
input: Which koff value belongs to FJ2246MP10E12 (Fab, V domains shown) VH: EVQLVESGGDLVKPGGSLRLSCVASGFTFRDYAMTWVRQAPGKGLQWVSLISGSGGKTYYADAVKGRFTISRDNAKNTLYLQMNSLRAEDTAVYYCAVDRLTKTIRPQYYGLWVWGQGTLVTVSS VL: DIVMTQTPLSLSVSPGETASISCRSSQSLLYSIGYNYLDWYLQKPGQSPQGLIYLGSKRASGVPDRFSGSGSGTDFTLRISRVEAEDTGVYYCMQGLQSPLSFGQGTKLEIK ?
output: 0.000139
